From: patent US20240336909

In this section, each of the proteins is paired with its reported Percent cleavage.
TESTED SYSTEM: AxCT mask27 EpCAM H90.2 L073 version 1

PROTEIN: MMP-7 (protein) YSLFPNSPKWTSKVVTYRIVSYTRDLPHITVDRLVSKALNMWGKEIPLHFRKVVWGTADIMIGFARGAHGDSYPFDGPGNTLAHAFAPGTGLGGDAHFDEDERWTDGSSLGINFLYAATHELGHSLGMGHSSDPNAVMYPTYGNGDPQNFKLSQDDIKGIQKLYGKRSNSRKK
Percent cleavage, %: 43
//
PROTEIN: MMP-1 (protein) FVLTEGNPRWEQTHLTYRIENYTPDLPRADVDHAIEKAFQLWSNVTPLTFTKVSEGQADIMISFVRGDHRDNSPFDGPGGNLAHAFQPGPGIGGDAHFDEDERWTNNFREYNLHRVAAHELGHSLGLSHSTDIGALMYPSYTFSGDVQLAQDDIDGIQAIYGRSQNPVQPIGPQTPKACDSKLTFDAITTIRGEVMFFKDRFYMRTNPFYPEVELNFISVFWPQLPNGLEAAYEFADRDEVRFFKGNKYWAVQGQNVLHGYPKDIYSSFGFPRTVKHIDAALSEENTGKTYFFVANKYWRYDEYKRSMDPGYPKMIAHDFPGIGHKVDAVFMKDGFFYFFHGTRQYKFDPKTKRILTLQKANSWFNCRKN
Percent cleavage, %: 0
//
PROTEIN: Neutrophil Elastase (protein) IVGGRRARPHAWPFMVSLQLRGGHFCGATLIAPNFVMSAAHCVANVNVRAVRVVLGAHNLSRREPTRQVFAVQRIFENGYDPVNLLNDIVILQLNGSATINANVQVAQLPAQGRRLGNGVQCLAMGWGLLGRNRGIASVLQELNVTVVTSLCRRSNVCTLVRGRQAGVCFGDSGSPLVCNGLIHGIASFVRGGCASGLYPDAFAPVAQFVNWIDSIIQ
Percent cleavage, %: 10
//
PROTEIN: Matriptase (protein) VVGGTDADEGEWPWQVSLHALGQGHICGASLISPNWLVSAAHCYIDDRGFRYSDPTQWTAFLGLHDQSQRSAPGVQERRLKRIISHPFFNDFTFDYDIALLELEKPAEYSSMVRPICLPDASHVFPAGKAIWVTGWGHTQYGGTGALILQKGEIRVINQTTCENLLPQQITPRMMCVGFLSGGVDSCQGDSGGPLSSVEADGRIFQAGVVSWGDGCAQRNKPGVYTRLPLFRDWIKENTGV
Percent cleavage, %: 0
